Target: VEGFR2 (KDR) extracellular domain/Fc (Homo sapiens, UniProt P35968 P35968:20-764)
Sequence (P35968 20-764, one chain of several): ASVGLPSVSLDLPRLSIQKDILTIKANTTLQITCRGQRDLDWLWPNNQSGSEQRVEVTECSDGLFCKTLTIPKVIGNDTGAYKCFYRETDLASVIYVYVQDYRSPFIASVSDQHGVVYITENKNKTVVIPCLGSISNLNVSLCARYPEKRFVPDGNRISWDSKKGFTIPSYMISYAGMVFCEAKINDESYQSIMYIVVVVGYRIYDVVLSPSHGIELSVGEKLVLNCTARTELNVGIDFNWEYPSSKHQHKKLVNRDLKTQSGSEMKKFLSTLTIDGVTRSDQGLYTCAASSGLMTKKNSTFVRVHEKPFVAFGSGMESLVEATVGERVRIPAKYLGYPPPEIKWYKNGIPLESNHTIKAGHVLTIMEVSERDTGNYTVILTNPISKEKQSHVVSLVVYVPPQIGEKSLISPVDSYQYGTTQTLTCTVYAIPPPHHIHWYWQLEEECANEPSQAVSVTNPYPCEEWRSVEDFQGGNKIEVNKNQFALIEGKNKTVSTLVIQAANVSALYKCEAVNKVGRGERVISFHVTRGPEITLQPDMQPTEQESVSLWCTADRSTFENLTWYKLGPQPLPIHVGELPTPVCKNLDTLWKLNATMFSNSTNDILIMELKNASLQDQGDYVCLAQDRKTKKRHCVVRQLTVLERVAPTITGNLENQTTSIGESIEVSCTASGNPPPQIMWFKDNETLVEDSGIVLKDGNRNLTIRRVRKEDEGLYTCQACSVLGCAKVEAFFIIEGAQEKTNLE
Assay: filter; 30N clone
Conditions: tags: C-terminal human IgG1 Fc fusion with Factor Xa site and His6; R&D Systems; NSO mouse myeloma cells; chain copies: 2 (stated, disulfide-linked homodimer)
List of Kd values.
I only need the number, in nM, no unit after it.

K23 (ssRNA, 2'-F pyrimidines) RNA: GGGAGGACGAUGCGGACACACACAUCAUAAACAUUGUCCGUUGACCAGACGACUCGCCCGA	2.2

// moving on: another record for Kd
Task: State its Kd for this binder: K13 (ssRNA, 2'-F pyrimidines) RNA: GGGAGGACGAUGCGGAACCAAUUAAGUCUGGCAAAUCUCUCUGUGCAGACGACUCGCCCGA
Output: 0.75

The reported numbers originate from patent US6762290.
